Data provenance: paper PMC7540527

Entries annotated with measured Cytotoxicity MCC (minimum cytotoxic concentration)
Test system: MDCK cells
Experimental context: dog
Structures can show the parent of a compound that is named as a salt.
Property: Cytotoxicity MCC (minimum cytotoxic concentration) (µM)

Compound	Measured on	Unit info	Comparative sign	Quantitative readout
CC(C)C[C@H](C(=O)N[C@H]1C(=O)N[C@@H](CC(N)=O)C(=O)N[C@H]2C(=O)N[C@H]3C(=O)N[C@H](C(=O)N[C@H](C(=O)O)c4cc(O)cc(O)c4-c4cc3ccc4O)[C@H](O)c3ccc(c(Cl)c3)Oc3cc2cc(c3O)Oc2ccc(cc2Cl)[C@H]1O)n1cc(COCCOCCOCCOCCOCCCC(F)(F)C(F)(F)C(F)(F)C(F)(F)F)nn1	MDCK cells	µM	=	42
CC(=O)NC1C(OC2c3ccc(c(Cl)c3)Oc3cc4cc(c3O)Oc3ccc(cc3Cl)CC3NC(=O)C(n5cc(COCCOCCCC(F)(F)C(F)(F)C(F)(F)C(F)(F)F)nn5)c5ccc(O)c(c5)Oc5cc(O)cc(c5)C(NC3=O)C(=O)NC4C(=O)NC3C(=O)NC2C(=O)NC(C(=O)O)c2cc(O)cc(O)c2-c2cc3ccc2O)OC(CO)C(O)C1O (stereo not drawn)	MDCK cells	µM	=	100
CN[C@H](CC(C)C)C(=O)N[C@H]1C(=O)N[C@@H](CC(N)=O)C(=O)N[C@H]2C(=O)N[C@H]3C(=O)N[C@H](C(=O)N[C@H](C(=O)O)c4cc(O)cc(O)c4-c4cc3ccc4O)[C@H](O)c3ccc(c(Cl)c3)Oc3cc2cc(c3O[C@@H]2O[C@H](CO)[C@@H](O)[C@H](O)[C@H]2O[C@H]2C[C@](C)(N)[C@H](O)[C@H](C)O2)Oc2ccc(cc2Cl)[C@H]1O [vancomycin⋅HCl]	MDCK cells	µM	>	100
CC(=O)N[C@H]1[C@H](O[C@@H]2c3ccc(c(Cl)c3)Oc3cc4cc(c3O)Oc3ccc(cc3Cl)C[C@H]3NC(=O)[C@H](N=[N+]=[N-])c5ccc(O)c(c5)Oc5cc(O)cc(c5)[C@H](NC3=O)C(=O)N[C@H]4C(=O)N[C@H]3C(=O)N[C@@H]2C(=O)N[C@H](C(=O)O)c2cc(O)cc(O)c2-c2cc3ccc2O)O[C@H](CO)[C@@H](O)[C@@H]1O	MDCK cells	µM	>	100
CC(C)C[C@H](C(=O)N[C@H]1C(=O)N[C@@H](CC(N)=O)C(=O)N[C@H]2C(=O)N[C@H]3C(=O)N[C@H](C(=O)N[C@H](C(=O)O)c4cc(O)cc(O)c4-c4cc3ccc4O)[C@H](O)c3ccc(c(Cl)c3)Oc3cc2cc(c3O)Oc2ccc(cc2Cl)[C@H]1O)n1cc(COCCOCCOCCOCCOCCCC(F)(F)C(F)(F)C(F)(F)C(F)(F)C(F)(F)C(F)(F)C(F)(F)C(F)(F)F)nn1	MDCK cells	µM	=	0.8
CC(=O)NC1C(OC2c3ccc(c(Cl)c3)Oc3cc4cc(c3O)Oc3ccc(cc3Cl)CC3NC(=O)C(n5cc(COCCOCCOCCOCCOCCCC(F)(F)C(F)(F)C(F)(F)C(F)(F)F)nn5)c5ccc(O)c(c5)Oc5cc(O)cc(c5)C(NC3=O)C(=O)NC4C(=O)NC3C(=O)NC2C(=O)NC(C(=O)O)c2cc(O)cc(O)c2-c2cc3ccc2O)OC(CO)C(O)C1O (stereo not drawn)	MDCK cells	µM	=	100
